# Tested on: LOX IMVI melanoma
# Assay info: NCI-60 one-dose screen, 48 h
# Condition context: 10 µM unless noted
About 83,000 compounds went through this panel and 20% of them were active in at least one assay; those are over-represented in the sample as a whole. The source made the active and inactive calls. The calls were made as follows: active = growth percent below 10; inactive = the rest.
Outcome codes: 1 (yes) for active, 0 (no) for inactive

# Compound, System under test, Assigned category
rows = [
    ("CC(=O)ON=C1C=CC(=C(C#N)c2ccccc2)C=C1", "LOX IMVI melanoma", "1 (yes)"),
    ("S=C(N/N=C/c1ccccn1)Nc1ccccn1", "LOX IMVI melanoma", "1 (yes)"),
    ("O[C@H]1[C@H]2c3cc4c(cc3CN3CCC(=C[C@@H]1O)[C@H]23)OCO4", "LOX IMVI melanoma", "1 (yes)"),
    ("Cc1ccc2nc(C[n+]3ccc4ccccc4c3)ccc2c1", "LOX IMVI melanoma", "0 (no)"),
    ("CCC(=O)Sc1ccccc1C(=O)Nc1ccc(Cl)cc1", "LOX IMVI melanoma", "0 (no)"),
    ("O=C1C=CC(=O)N1C1c2ccccc2-c2ccccc21", "LOX IMVI melanoma", "0 (no)"),
    ("O=C1N[C@H]2[C@H](CS[C@H]2CCCCC(=O)N(CCP(c2ccccc2)c2ccccc2)CCP(c2ccccc2)c2ccccc2)N1", "LOX IMVI melanoma", "0 (no)"),
    ("Nc1nc(N)c2c(ccc3c2ccn3Cc2cccc([N+](=O)[O-])c2)n1", "LOX IMVI melanoma", "1 (yes)"),
    ("CCCCCCC(C)c1ccccc1O (stereo not drawn) (tested in a mixture with another compound)", "LOX IMVI melanoma", "0 (no)"),
    ("O=C(/C=C\\c1ccccc1)N1c2ccccc2CC1c1c[nH]c2ccccc12 (stereo not drawn)", "LOX IMVI melanoma", "0 (no)"),
    ("O=C(/C=C/C=C/c1ccccc1)c1ccco1", "LOX IMVI melanoma", "0 (no)"),
    ("O=Nc1ccccc1N=O", "LOX IMVI melanoma", "0 (no)"),
    ("CCC(c1cccc(O)c1)C(CC)c1cccc(O)c1 (stereo not drawn)", "LOX IMVI melanoma", "0 (no)"),
    ("Cc1ccc2nc(-[n+]3cc4ccccc4cc3C)ccc2c1", "LOX IMVI melanoma", "0 (no)"),
    ("COC(=O)[C@@]12OC[C@]34[C@H]([C@@H](O)[C@@H]1O)[C@@]1(C)[C@H](O)C(=O)C=C(C)[C@@H]1C[C@H]3OC(=O)C(OC(C)=O)[C@@H]24 (stereo partly drawn)", "LOX IMVI melanoma", "1 (yes)"),
    ("N#CSCc1ccc(Cl)c(CSC#N)c1", "LOX IMVI melanoma", "0 (no)"),
    ("CN(Cc1cnc2nc(N)nc(N)c2n1)c1ccc(C(=O)NC(CCC(=O)O)C(=O)O)cc1 (stereo not drawn)", "LOX IMVI melanoma", "0 (no)"),
    ("OC(CNc1ccnc2cc(Cl)ccc12)CNc1ccnc2cc(Cl)ccc12", "LOX IMVI melanoma", "1 (yes)"),
    ("C[n+]1c(/C=C/c2ccc([N+](=O)[O-])cc2)ccc2ccccc21", "LOX IMVI melanoma", "0 (no)"),
    ("Cc1cc2nc(CS)[nH]c2cc1C", "LOX IMVI melanoma", "0 (no)"),
    ("O=C(O)c1ccc2c3c(ncnc13)-c1ccccc1C2=O", "LOX IMVI melanoma", "0 (no)"),
    ("CCC1OC(OC)C=CC1=O (stereo not drawn)", "LOX IMVI melanoma", "0 (no)"),
    ("COc1ccc2nc3cc(Cl)ccc3c(NCCNc3c4ccc(Cl)cc4nc4ccc(OC)cc34)c2c1", "LOX IMVI melanoma", "1 (yes)"),
    ("CCCCCCCCCCCCCCCCOP(=O)([O-])OCC[N+](C)(C)C", "LOX IMVI melanoma", "0 (no)"),
    ("CN(C)CCOc1ccc2c(c1)C(=O)/C(=C\\c1ncc([N+](=O)[O-])n1C)C2", "LOX IMVI melanoma", "1 (yes)"),
    ("Oc1c(Br)cc(Cl)cc1C(c1cc(Cl)cc(Br)c1O)C(Cl)(Cl)Cl", "LOX IMVI melanoma", "0 (no)"),
    ("CCCCCCCCCCCCCCNCc1ccccc1", "LOX IMVI melanoma", "0 (no)"),
    ("NC(=O)/C=C/C(=O)c1c(Cl)cccc1Cl", "LOX IMVI melanoma", "1 (yes)"),
    ("CNc1ccc2c(c1)c1ccccc1n2C", "LOX IMVI melanoma", "0 (no)"),
    ("CC1OC(OC2C(OC3CCC4(C)C(CCC5(C)C4CC=C4C6CC(C)(C)CCC6(CO)C(O)CC45C)C3(C)C)OC(C(=O)O)C(OC3OC(COC4OC(CO)C(O)C(O)C4O)C(O)C(O)C3O)C2O)C(O)C(O)C1O (stereo not drawn)", "LOX IMVI melanoma", "1 (yes)"),
    ("O=C(Nc1ccccc1)c1cc(Cl)ccc1O", "LOX IMVI melanoma", "0 (no)"),
    ("CN(C)c1ccc(C(=C2C=CC(=[N+](C)C)C=C2)c2ccc(N(C)C)cc2)cc1 (tested in a mixture with another compound)", "LOX IMVI melanoma", "1 (yes)"),
    ("C1=C(c2ccccc2)C(c2ccc(OCCN3CCCCC3)cc2)Oc2ccccc21 (stereo not drawn)", "LOX IMVI melanoma", "1 (yes)"),
]

The values you see were collected from PubChem BioAssay (NCI).
